# System: sh-DNMT1 NCI-H82 cell
# METHOD: CellTiter-Glo cell viability, sh-DNMT1 NCI-H82 cell (DNMT1 knocked down)
# Assay type: cell-based, human
# CONDITION PARAMETERS: Homo sapiens, NCI-H82, NCI-H82 with DNMT1 knocked down by shRNA, intracellular ATP, read-out: inhibitory effect on sh-DNMT1 NCI-H82 (IC50)
ENDPOINT NAME: pIC50
Expect pIC50 as a plain number equal to -log10 of the molar concentration.

Solved entries (count: 6):
INSERT INTO measurements (molecule, endpoint_name, quantitative_readout) VALUES
  ('CCOc1c(OC)ccc2c1C(C(Cl)(Cl)Cl)N1CCc3cc4c(cc3C1=C2)OCO4 (centres unmarked)', 'pIC50', 5.19),
  ('CCCCCC1=C2c3cc4c(cc3CCN2C(C2CCCC2)c2c1ccc(OC)c2OC)OCO4 (centres unmarked)', 'pIC50', 5.25),
  ('COc1ccc2c(c1OCCCc1ccccc1)C(C(Cl)(Cl)Cl)N1CCc3cc4c(cc3C1=C2)OCO4 (centres unmarked)', 'pIC50', 5.50),
  ('COc1ccc2c(c1OCCCCCl)C(C(Cl)(Cl)Cl)N1CCc3cc4c(cc3C1=C2)OCO4 (centres unmarked)', 'pIC50', 5.08),
  ('COc1ccc2c(c1OC)C(C(Cl)(Cl)Cl)N1CCc3cc4c(cc3C1=C2CCCCCCBr)OCO4 (centres unmarked)', 'pIC50', 5.59),
  ('ClC(Cl)(Cl)C1c2c(ccc3c2OCO3)C=C2c3cc4c(cc3CCN21)OCO4 (centres unmarked)', 'pIC50', 4.67);

Lookup: Please tell me: pIC50 of COc1ccc2c(c1OC/C=C(\C)CCC=C(C)C)C(C(Cl)(Cl)Cl)N1CCc3cc4c(cc3C1=C2)OCO4 (centres unmarked) , system sh-DNMT1 NCI-H82 cell?
Found: 5.41

Lookup: Thanks! And COc1ccc2c(c1OCCCCOc1ccccc1)C(C(Cl)(Cl)Cl)N1CCc3cc4c(cc3C1=C2)OCO4 (centres unmarked) ?
Found: 5.34
